# target.of.assay: T1, human GPVI extracellular region-human Fc fusion protein (hGPVI-hFc) (human)
# T1 construct: expressed in COS-1, Protein A purified; also called GPVI-HHH-hFc; hGPVIHHH-hFc
# protocol.summary: SPR (BIACORE3000), GPVI-hFc coupled to CM5 chip, antibody 1.25-40 nM, bivalent analyte fit
Listing: Kd of selected binders
Only the number, expressed in nM, is required.

# count of solved cases: 2
F1232-37-2 (antibody, V domains shown, mouse monoclonal antibody from hybridoma; also called F1232-37-2 (whole antibody)) VH: VQLQQSGPELVRPGESVKISCKGSGYTFTDYAIHWVKLSHAKSLEWIGVISIYYDDTNYNQKFKGKATMTVDKSSSTAYLELARLTSEDSAIYYCARRRDSSGPYAMDYWGQGTSVTVSS VL: DIVLTQSPASLAVSLGQRATISCRASESVDSYGNSFMHWYQQKPGQPPKLLIYRASNLESGIPARFSGSGSRTDFTLTINPVEADDVATYYCQQSNEDPYTFGGGTKLEIKR	0.403
F1232-18-3 (antibody, V domains shown, mouse monoclonal antibody from hybridoma) VH: VMLVESGGGLVKPGGSLKLSCAASGFTFSSYAMSWVRQTPEKRLEWVATISSGGSYTYYPDSVKGRFTISRDNAKNTLYLQMSSLRSADTAMYYCARDYGYFDYWGQGTTLTVSS VL: DIVLTQSPASLAVSLGQRATISCRASESVDNYGISFMHWYQQKPGQPPKLLFYRASNLESGIPARFSGSGSRTDFTLTINPVETDDVATYYCQQSNTDPRTFGGGTKLEIKR	1.65

Task item: Look up Kd: F1232-17-1 (antibody, V domains shown, mouse monoclonal antibody from hybridoma) VH: VQLVESGGDLVKPGGSLKLSCAASGFTFSSYGMSWVRQTPDKRLEWVATISSGGSYTYYPDNVKGRFTISRDNAKNTLYLQMSSLNSEDTAMYYCARQVYYFGSCDYWGQGTTLTVSS VL: DIVLTQSPASLAVSLGQRATISCRASESVDNYGISFMHWYQQKPGQPPKLLIYRASNLESGIPARFSGSGSRTDFTLTINPVETDDVATYYCQQSNKDPWTFGGGTKLEIKR
Reply: 0.522

Task item: For the binder F1201-18 (antibody, V domains shown, mouse monoclonal antibody from hybridoma) VH: VQLVESGGGLVKPGGSLKLSCAASGFTFSSYAMSWVRQTPEKRLEWVAIISSGGSYTYYPDSVKGRFTISRDNAKNTLYLHMSSLRSEDTAMYYCARQGGGYFDYWGQGTTLTVSS VL: DIVLTQSPASLAVSLGQRATISCRASESVDSYGNSFMHWYQQKPGQPPKLLIYRASNVESGIPARFSGSGSRTDFTLTINPVEADDVATYYCQQSNEDPPTFGAGTKLELKR , what Kd is on record?
Reply: 1.16
